Listed below: DR/DR SA values for each entry.
Experiment: Probe fluorescence ratio response to stearic acid relative to ADIFAB2
Type: binding
Conditions: response relative to ADIFAB2

Reference set (2 entries):
>  <molecule>
38A 106V 117A 72A (protein, listed as Rattus norvegicus, PEPTIDE (1)...(131) wild-type rat intestinal fatty acid binding protein) AFDGTWKVDRNENYEKFMEKMGINVVKRKLGAHDNLKATITQEGNKFTVKESSNFRNIDVVFELGVDFAYSAADGTELTGTWTMEGNKLVGKFKRVDNGKELIAVVEISGNELIQTATYEGVEAKRIFKKE

>  <DR/DR SA>
0.065

$$$$
>  <molecule>
72T 73Q 74S (protein, listed as Rattus norvegicus, PEPTIDE (1)...(131) wild-type rat intestinal fatty acid binding protein) AFDGTWKVDRNENYEKFMEKMGINVVKRKLGAHDNLKLTITQEGNKFTVKESSNFRNIDVVFELGVDFAYSTQSGTELTGTWTMEGNKLVGKFKRVDNGKELIAVREISGNELIQTYTYEGVEAKRIFKKE

>  <DR/DR SA>
1.792

$$$$

Pending molecule:
Inquiry: Suppose we examine the molecule 72T 73V 74N (protein, listed as Rattus norvegicus, PEPTIDE (1)...(131) wild-type rat intestinal fatty acid binding protein) AFDGTWKVDRNENYEKFMEKMGINVVKRKLGAHDNLKLTITQEGNKFTVKESSNFRNIDVVFELGVDFAYSTVNGTELTGTWTMEGNKLVGKFKRVDNGKELIAVREISGNELIQTYTYEGVEAKRIFKKE ; what DR/DR SA value has been reported?
Reply text: 1.942
